Biological target: PARP-1 enzyme (Homo sapiens, UniProt P09874)
Sequence (P09874 whole entry): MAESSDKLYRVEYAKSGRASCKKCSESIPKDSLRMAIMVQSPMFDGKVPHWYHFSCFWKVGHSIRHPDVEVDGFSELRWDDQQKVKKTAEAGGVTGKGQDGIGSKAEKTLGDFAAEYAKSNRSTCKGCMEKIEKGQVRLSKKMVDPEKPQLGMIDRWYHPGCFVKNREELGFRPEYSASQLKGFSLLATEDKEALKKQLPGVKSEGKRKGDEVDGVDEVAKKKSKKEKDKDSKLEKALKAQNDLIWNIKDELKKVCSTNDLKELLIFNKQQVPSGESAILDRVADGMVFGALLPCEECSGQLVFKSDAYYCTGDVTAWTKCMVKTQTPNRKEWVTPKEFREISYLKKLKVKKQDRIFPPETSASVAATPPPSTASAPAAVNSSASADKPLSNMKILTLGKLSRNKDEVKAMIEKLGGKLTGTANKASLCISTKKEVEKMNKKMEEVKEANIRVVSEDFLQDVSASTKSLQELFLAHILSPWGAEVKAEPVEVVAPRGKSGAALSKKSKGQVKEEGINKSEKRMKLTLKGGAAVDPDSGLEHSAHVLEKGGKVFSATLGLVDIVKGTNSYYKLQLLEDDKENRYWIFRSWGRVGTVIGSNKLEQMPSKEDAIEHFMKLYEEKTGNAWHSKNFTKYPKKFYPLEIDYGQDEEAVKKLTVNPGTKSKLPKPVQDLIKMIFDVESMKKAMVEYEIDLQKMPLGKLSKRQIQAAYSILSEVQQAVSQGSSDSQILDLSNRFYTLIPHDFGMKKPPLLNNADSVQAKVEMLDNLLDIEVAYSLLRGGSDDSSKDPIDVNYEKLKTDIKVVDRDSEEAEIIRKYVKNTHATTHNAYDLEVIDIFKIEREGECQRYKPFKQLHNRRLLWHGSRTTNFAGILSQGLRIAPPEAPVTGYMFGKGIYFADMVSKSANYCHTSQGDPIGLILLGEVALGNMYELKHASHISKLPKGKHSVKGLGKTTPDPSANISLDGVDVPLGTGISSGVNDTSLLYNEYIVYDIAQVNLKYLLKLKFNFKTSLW
Assay: In vitro scintillation proximity assay (SPA) for PARP-1 inhibitory activity
Type: biochemical
Conditions: [3H]-NAD+, biotinylated histones, nicked DNA; read-out: in vitro SPA assay PARP-1 pIC50 (converted)
Please use Satisfied for IC50 under 40 nM and Not satisfied for everything else, ties included.

[in] For Cc1cccc2nc(NCCN3CCC(c4n[nH]c5cc(F)ccc45)CC3)[nH]c(=O)c12 , is the recorded IC50 below the cut-off of 40 nM?
[out] Satisfied

[in] Quick check: IC50 of Cc1cccc2nc(NCCN3CCN(c4n[nH]c5ccccc45)CC3)[nH]c(=O)c12 under 40 nM?
[out] Satisfied

[in] Here's an entry: O=c1[nH]c(NCCCN2CCN(c3nsc4ccccc34)CC2)nc2ccccc12 . Is its IC50 below 40 nM?
[out] Not satisfied

[in] Consider O=c1nc(NCCCN2CCC(Nc3nccc4ccccc34)CC2)[nH]c2ccccc12 . Does its IC50 lie strictly below 40 nM?
[out] Not satisfied

[in] Find out if reported IC50 for Cc1ccc2nc(NCCN3CCN(c4n[nH]c5ccccc45)CC3)[nH]c(=O)c2c1 is less than 40 nM
[out] Satisfied

[in] Determine if CC1(C)Cc2c(N)c(Cl)cc(C(=O)NC3CCN(CCCNc4nc(O)c5ccccc5n4)CC3)c2O1 shows IC50 strictly lower than 40 nM.
[out] Not satisfied

[in] hey, is IC50 for O=c1[nH]c(NCCN2CCN(c3n[nH]c(=O)c4ccccc34)CC2)nc2ccccc12 lower than 40 nM or not?
[out] Satisfied
